Values were extracted from paper PMC7938327.

target: human recombinant ATX (Homo sapiens); experiment: ATX lysophospholipase D activity, FS-3 hydrolysis; assay type: biochemical; details: FS-3 substrate
measured metric: ATX inhibitory activity (in words)

* O=C(Nc1c(F)c(F)c(F)c(F)c1F)c1cc(S(=O)(=O)N2CCOCC2)c(Cl)cc1Cl | poorly active
* COc1cc(NC(=O)c2cc(S(=O)(=O)N3CCOCC3)c(Cl)cc2Cl)cc(OC)c1OC | poorly active

* * *

molecular target: human recombinant ATX (Homo sapiens, UniProt Q13822); assay: ATX nucleotide pyrophosphatase activity, pNP-TMP hydrolysis; assay type: biochemical; settings: 1 mM pNP-TMP, 4 nM ATX, compound 0 to 1 μM
measured metric: pNP-TMP inhibition

- CS(=O)(=O)N(C(=O)c1cc(NN2CCOCC2)c(Cl)cc1Cl)c1cc(F)c(F)c(F)c1 [Compound 26a]: none
- O=S(=O)(c1cc(C(=S)Nc2ccc(F)c(F)c2)c(Cl)cc1Cl)N1CCOCC1: none
- O=C(Nc1cc(Cl)c(Cl)c(Cl)c1)c1cc(S(=O)(=O)N2CCOCC2)c(Cl)cc1Cl: none
- O=C(Nc1cc(F)c(F)c(F)c1)c1cc(NN2CCOCC2)c(Cl)cc1Cl: none
- CN1CCN(S(=O)(=O)c2cc(C(=O)Nc3cc(Cl)c(F)c(Cl)c3)c(Cl)cc2Cl)CC1 [Compound 28b]: none
- O=S(=O)(c1cc(C(=S)Nc2cc(Cl)c(F)c(Cl)c2)c(Cl)cc1Cl)N1CCOCC1: none
- O=C(Nc1ccc(F)c(F)c1)c1cc(S(=O)(=O)N2CCOCC2)c(Cl)cc1Cl: none
- CN(C(=O)c1cc(S(=O)(=O)N2CCOCC2)c(Cl)cc1Cl)c1cccc(F)c1: none
- O=C(Nc1cc(F)c(F)c(F)c1Br)c1cc(S(=O)(=O)N2CCOCC2)c(Cl)cc1Cl: none
- N#Cc1c(F)cc(NC(=O)c2cc(S(=O)(=O)N3CCOCC3)c(Cl)cc2Cl)cc1F: none
- O=S(=O)(Nc1cccc(F)c1)c1cc(S(=O)(=O)N2CCOCC2)c(Cl)cc1Cl: none
- CN1CCN(S(=O)(=O)c2cc(C(=O)Nc3cc(F)c(F)c(F)c3)c(Cl)cc2Cl)CC1 [Compound 28a]: none
- O=C(Nc1cc(Cl)c(F)c(Cl)c1)c1cc(S(=O)(=O)N2CCOCC2)c(Cl)cc1Cl: none
- O=S(=O)(Nc1cc(F)c(F)c(F)c1)c1cc(S(=O)(=O)N2CCOCC2)c(Cl)cc1Cl: none
- O=S(=O)(c1cc(C(=S)Nc2cc(F)c(F)c(F)c2)c(Cl)cc1Cl)N1CCOCC1: none
- O=S(=O)(c1cc(CNc2cc(F)c(F)c(F)c2)c(Cl)cc1Cl)N1CCOCC1: none
